biological target: purified human Factor XIa (Homo sapiens (Human), UniProt P03951)
Sequence (P03951 388-625): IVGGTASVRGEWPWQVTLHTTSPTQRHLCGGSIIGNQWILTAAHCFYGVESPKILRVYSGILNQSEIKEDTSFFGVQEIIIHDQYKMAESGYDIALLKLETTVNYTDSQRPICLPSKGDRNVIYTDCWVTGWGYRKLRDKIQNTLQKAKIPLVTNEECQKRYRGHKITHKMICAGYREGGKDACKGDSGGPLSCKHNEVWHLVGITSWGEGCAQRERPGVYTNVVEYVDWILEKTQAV
Sequence (P03951 19-387 partner): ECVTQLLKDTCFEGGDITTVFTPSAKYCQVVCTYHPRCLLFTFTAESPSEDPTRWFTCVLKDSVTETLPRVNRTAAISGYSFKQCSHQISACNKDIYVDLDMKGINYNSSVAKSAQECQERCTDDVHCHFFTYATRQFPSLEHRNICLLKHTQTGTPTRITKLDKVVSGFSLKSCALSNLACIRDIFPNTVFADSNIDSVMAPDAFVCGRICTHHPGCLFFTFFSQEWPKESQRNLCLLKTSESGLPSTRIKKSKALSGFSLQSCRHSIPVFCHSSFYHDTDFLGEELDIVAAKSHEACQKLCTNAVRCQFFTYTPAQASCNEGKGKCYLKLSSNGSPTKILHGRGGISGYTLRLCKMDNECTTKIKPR
metric name: Ki (nM)
Your answer is read as nM, so omit the unit and give the number.

{"molecule": "O=C1CCCCC(O)(c2ccc(-c3cc(Cl)ccc3-n3cnnn3)c[n+]2[O-])c2nc(c[nH]2)-c2cc(F)ccc2N1 (single isomer, unassigned)", "unit of measurement": "nM", "recorded number": 46}
{"molecule": "COC(=O)Nc1ccc2c(c1)NC(=O)C(C)CCCC(c1ccc(-c3c(F)ccc(Cl)c3F)c[n+]1[O-])c1cccc-2c1 (single isomer, unassigned) [Example 50-c]", "unit of measurement": "nM", "recorded number": 270}
{"molecule": "COC(=O)Nc1ccc2c(c1)NC(=O)CC1CC1CC(c1ccc(-c3c(OC(F)F)ccc(Cl)c3F)c[n+]1[O-])c1nc-2c(C)[nH]1 (racemic)", "unit of measurement": "nM", "recorded number": 0.66}
{"molecule": "COC(=O)Nc1ccc2c(c1)NC(=O)CCCCC(c1ccc(-c3c(F)ccc(Cl)c3F)c[n+]1[O-])c1cc-2cc[n+]1[O-] (centres unmarked)", "unit of measurement": "nM", "recorded number": 2.2}

// next entry
Fill in: Ki on purified human Factor XIa (Homo sapiens (Human), UniProt P03951), entry CCc1[nH]c2nc1-c1ccc(NC(=O)OC)cc1NC(=O)CCCC[C@@H]2c1ccc(-c2c(F)cccc2-n2cc(C(F)(F)F)cn2)c[n+]1[O-] (single isomer, unassigned)
2.3

* * *

Entries with their measured pKi, system UniProtKB P03951:
Kindly note that pKi refers to -log10 of the concentration in mol/L and answer with the value alone.

These recorded examples may help you get a feel for the data.
{"compound": "CCc1[nH]c2nc1-c1ccc(NC(=O)OC)cc1NC(=O)CCCC[C@@H]2c1ccc(-c2c(-n3cc(C(F)(F)F)cn3)ccc(Cl)c2F)c[n+]1[O-] (single isomer, unassigned)", "pKi": 6.77}
{"compound": "O=C1CCCCC(c2ccc(-c3c(-n4cnnn4)ccc(Cl)c3F)c[n+]2[O-])c2c[nH]c(n2)-c2cc(F)ccc2N1 (racemic)", "pKi": 9.26}

Please report pKi for the following compound: COC(=O)Nc1ccc2c(c1)NC(=O)CCCC[C@H](c1ccc(-c3cc(Cl)ccc3OC(F)(F)F)c[n+]1[O-])c1cccc-2c1 (single isomer, unassigned)
9.42

* * *

Ki by entry:
molecular target: UniProt P03951; assay: Factor XIa Assay; assay type: biochemical; details: purified human Factor XIa 40 pM; substrate Z-Gly-Pro-Arg-AFC 100 μM; 50 mM HEPES pH 7.4; read-out: Human FXIa Ki
Be sure to follow the number with its unit.

These recorded examples may help you get a feel for the data.
{"compound": "COC(=O)Nc1ccc2c(c1)NC(=O)CCCCC(c1ccc(-c3cc(Cl)ccc3-n3cnnn3)cn1)c1cc-2ncn1 (centres unmarked) [Example 65]", "result": "2.9 nM"}
{"compound": "COC(=O)Nc1ccc2c(c1)NC(=O)CCCCC(c1ccc(-c3cc(Cl)ccc3-n3cc(C(F)F)nn3)c[n+]1[O-])c1cccc-2c1 (single isomer, unassigned) [Example 36-a]", "result": "0.26 nM"}
{"compound": "COC(=O)Nc1ccc2c(c1)NC(=O)CCCCC(c1ccc(-c3c(F)ccc(Cl)c3F)c[n+]1[O-])c1cc-2[n+]([O-])cc1F (centres unmarked) [Example 82]", "result": "3.7 nM"}

Fill in: Ki on UniProt P03951, entry COC(=O)Nc1ccc2c(c1)NC(=O)CCCC[C@H](c1ccc(-c3ccccc3C(F)(F)F)c[n+]1[O-])c1nc-2c(C)[nH]1 (single isomer, unassigned) [Example 121]
0.43 nM

Fill in: Ki on UniProt P03951, entry O=C1CCCC[C@H](c2ccc(-c3cc(Cl)ccc3-n3cnnn3)c[n+]2[O-])c2cccc(c2)-c2cc(C(=O)O)ccc2N1 [Example 4-b]
8.4 nM

Fill in: Ki on UniProt P03951, entry CCc1[nH]c2nc1-c1ccc(NC(=O)OC)cc1NC(=O)C(C)CCC[C@@H]2c1ccc(-c2c(F)cccc2F)c[n+]1[O-] (single isomer, unassigned) [Example 144]
0.46 nM

Fill in: Ki on UniProt P03951, entry C[C@@H]1CCC[C@H](c2ccc(-c3ccccc3-n3cc(Cl)nn3)c[n+]2[O-])c2cccc(c2)-c2c(cnn2C(F)F)NC1=O (single isomer, unassigned) [Example 172-a]
1.37 nM

Fill in: Ki on UniProt P03951, entry COC(=O)Nc1ccc2c(c1)NC(=O)CCCCC(c1ccc(-c3c(F)ccc(Cl)c3F)c[n+]1[O-])c1cc[n+]([O-])c-2c1 (centres unmarked) [Example 94]
5.1 nM

Fill in: Ki on UniProt P03951, entry COC(=O)Nc1ccc2c(c1)NC(=O)CCCC[C@H](c1ccc(-c3c(C(F)F)ccc(Cl)c3F)c[n+]1[O-])c1nc-2c(C)[nH]1 (single isomer, unassigned) [Example 124]
0.2 nM

Fill in: Ki on UniProt P03951, entry COC(=O)Nc1ccc2c(c1)NC(=O)CCCCC(c1ccc(-c3cc(Cl)ccc3-n3cnnn3)cn1)c1cc-2ncc1F (centres unmarked) [Example 57]
0.52 nM

Fill in: Ki on UniProt P03951, entry COC(=O)Nc1ccc2c(c1)NC(=O)CCCC[C@H](c1ccc(-c3cc(Cl)ccc3OC(F)F)c[n+]1[O-])c1cccc-2c1 (single isomer, unassigned) [Example 33]
0.28 nM

* * *

Ki by entry:
target: purified human Factor XIa (Homo sapiens (Human), UniProt P03951)
Your answer is read as nM, so omit the unit and give the number.

{"compound": "COC(=O)Nc1ccc2c(c1)NC(=O)C(C)(C)CCC[C@H](c1ccc(-c3c(F)cccc3OC(F)F)c[n+]1[O-])c1nc-2c(C)[nH]1 (single isomer, unassigned)", "Ki, nM": 0.22}

Fill in: Ki on purified human Factor XIa (Homo sapiens (Human), UniProt P03951), entry COC(=O)Nc1ccc2c(c1)NC(=O)CCCCC(c1ccc(-c3c(F)ccc(Cl)c3F)cn1)c1ccc(F)c-2c1 (stereo not drawn)
839

Fill in: Ki on purified human Factor XIa (Homo sapiens (Human), UniProt P03951), entry COC(=O)Nc1ccc2c(c1)NC(=O)CCCCC(c1ccc(-c3c(F)ccc(Cl)c3F)c[n+]1[O-])c1ccc(F)c-2n1 (stereo not drawn)
180

Fill in: Ki on purified human Factor XIa (Homo sapiens (Human), UniProt P03951), entry COC(=O)Nc1ccc2c(c1)NC(=O)CCCC[C@H](c1ccc(-c3cc(Cl)ccc3-c3cnn(C(F)F)c3)c[n+]1[O-])c1cccc-2c1 (single isomer, unassigned)
0.44

Fill in: Ki on purified human Factor XIa (Homo sapiens (Human), UniProt P03951), entry C[C@H]1CCC[C@H](c2ccc(-c3cc(Cl)ccc3-n3cnnn3)c[n+]2[O-])c2cccc(c2)-c2cc(F)ccc2NC1=O
0.57

Fill in: Ki on purified human Factor XIa (Homo sapiens (Human), UniProt P03951), entry C[C@@H]1CCC[C@H](c2ccc(-c3cc(Cl)ccc3-n3cc(Cl)nn3)c[n+]2[O-])c2cccc(c2)-c2c(cnn2C(F)F)NC1=O (single isomer, unassigned)
0.14

Fill in: Ki on purified human Factor XIa (Homo sapiens (Human), UniProt P03951), entry O=C1CCCC[C@H](c2ccc(-c3cc(Cl)ccc3-n3cc(C(F)(F)F)cn3)c[n+]2[O-])c2cccc(c2)-c2c(cnn2C(F)F)N1 (single isomer, unassigned)
1.37

Fill in: Ki on purified human Factor XIa (Homo sapiens (Human), UniProt P03951), entry COC(=O)Nc1ccc2c(c1)NC(=O)CCCCC(c1ccc(-c3c(F)ccc(Cl)c3F)cn1)c1cc-2c(F)cn1 (stereo not drawn)
342

Fill in: Ki on purified human Factor XIa (Homo sapiens (Human), UniProt P03951), entry O=C1CCCCC(c2ccc(-c3cc(Cl)ccc3-n3cnnn3)c[n+]2[O-])c2ccnc(c2)-c2cc(F)ccc2N1 (stereo not drawn)
0.37

Fill in: Ki on purified human Factor XIa (Homo sapiens (Human), UniProt P03951), entry COC(=O)Nc1cc(F)c2c(c1)NC(=O)C(C)CCCC(c1ccc(-c3c(F)ccc(Cl)c3F)c[n+]1[O-])c1cccc-2c1 (single isomer, unassigned) [Example 85-b]
6

Fill in: Ki on purified human Factor XIa (Homo sapiens (Human), UniProt P03951), entry COC(=O)Nc1ccc2c(c1)NC(=O)CCCCC(c1ccc(-c3cc(Cl)ccc3-n3cnnn3)cn1)c1nc-2c[nH]1 (stereo not drawn)
3.3

Fill in: Ki on purified human Factor XIa (Homo sapiens (Human), UniProt P03951), entry O=C1CCCCC(c2ccc(-c3cc(Cl)ccc3-n3cc(C(F)(F)F)nn3)c[n+]2[O-])c2cccc(c2)-c2c(cnn2C(F)F)N1 (stereo not drawn)
0.21
